System: human breast cancer cell line MDA-MB-361
Test: XTT growth inhibition assay, MDA-MB-361
Type: cell-based
Settings: MDA-MB-361, Mammary Gland Adenocarcinoma
Quantity name: IC50
In your response, put the unit directly after the numeric value.

Value of IC50 reported for the compound O=S(=O)(Cc1ccccc1)N1Cc2ccccc2[C@@H]1c1c[nH]c2ccccc12 is 4.5 µM

----------
Test system: human Osteosarcoma cell line U2OS
Test: XTT growth inhibition assay, U2OS
Assay type: cell-based
Quantity name: IC50 (µM)
Please state the figure in µM; there is no need to write the unit.

Recorded result, O=S(=O)(Cc1ccccc1)N1Cc2ccccc2[C@@H]1c1c[nH]c2ccccc12 , IC50: 4.7

----------
Test system: human Glioblastoma cell line T98G
Assay: XTT growth inhibition assay, T98G
Format: cell-based
Settings: Glioblastoma Multiforme
Description: Standard XTT assays with a four-day drug treatment procedure were performed to measure the dose dependent cytotoxicity of IBR analogs in cultured cells. In brief, cells were plated on 96-well dishes one day before the drug treatment, followed by drug treatment on day 2 and XTT assay on day 6 after drug addition by using a commercial cell proliferation kit (Roche Scientific) following the instructions. Triplicate sets were measured and compiled for final data presentation. […]
Quantity name: pIC50
# log scale: pIC50 equals minus log10 of the concentration in mol/L

Simply: O=S(=O)(Cc1ccccc1)N1Cc2ccccc2[C@@H]1c1c[nH]c2ccccc12 , human Glioblastoma cell line T98G, pIC50 = 5.02

----------
Test system: triple-negative human breast cancer cell line MDA-MB-468
Experiment: XTT cell killing / growth inhibition assay, MDA-MB-468
Type: cell-based
Details: Homo sapiens, MDA-MB-468; growth inhibition, raw dataset for SAR analysis; read-out: pIC50 (converted)
Catalogue of compounds with associated IC50
Kindly provide the numeric value in µM only, without the unit symbol.

As a guide, the following entries are already answered.
| Compound | Quantity name | Readout value |
| --- | --- | --- |
| O=S(=O)(Cc1ccccc1)N1CCc2ccccc2[C@@H]1c1n[nH]c2ccccc12 [IBR117] | IC50 | 9.55 |
| O=S(=O)(Cc1ccccc1)N1CCc2ccccc2[C@H]1c1n[nH]c2ccccc12 [IBR118] | IC50 | 14.5 |

Switching to the query record.
For record O=S(=O)(Cc1ccccc1)N1Cc2ccccc2[C@@H]1c1c[nH]c2ccccc12 [IBR120] the listed IC50 is 3.24

----------
System: human breast cancer cell line MCF7
Test: XTT growth inhibition assay, MCF7
Type: cell-based
Conditions: MCF7, Mammary Gland Adenocarcinoma
Quantity name: pIC50
Scale note: pIC50 = -log10(concentration in M).

Entry O=S(=O)(Cc1ccccc1)N1Cc2ccccc2[C@@H]1c1c[nH]c2ccccc12 , pIC50 reported as 5.51
